assay: Tissue distribution after single oral dose; type: in vivo, mice; settings: female, KM, mouse, spleen; over 1-30 h; oral 500 mg·kg^−1; read-out: tissue/plasma concentration ratio range, spleen

{"Compound": "CC(C)=C/C=C/[C@H](C)[C@H]1CC[C@]2(C)C[C@@H]3C(C)=CC(=O)[C@H]3/C(C=O)=C\\C[C@@H]12 [MHO7, 6-epi-ophiobolin G]", "Kp": "0.28 to 8.55"}

====

assay: Tissue distribution after single oral dose; type: in vivo, mice; settings: KM, mouse, heart; 12 h; oral 500 mg·kg^−1, female mice; read-out: Concentration in Heart

{"Compound": "CC(C)=C/C=C/[C@H](C)[C@H]1CC[C@]2(C)C[C@@H]3C(C)=CC(=O)[C@H]3/C(C=O)=C\\C[C@@H]12 [MHO7, 6-epi-ophiobolin G]", "concentration at 12 h [ng/g]": 640}
